Value source: patent US8642585B2

# experimental.system: UniProtKB O14842
# Sequence (O14842 whole entry): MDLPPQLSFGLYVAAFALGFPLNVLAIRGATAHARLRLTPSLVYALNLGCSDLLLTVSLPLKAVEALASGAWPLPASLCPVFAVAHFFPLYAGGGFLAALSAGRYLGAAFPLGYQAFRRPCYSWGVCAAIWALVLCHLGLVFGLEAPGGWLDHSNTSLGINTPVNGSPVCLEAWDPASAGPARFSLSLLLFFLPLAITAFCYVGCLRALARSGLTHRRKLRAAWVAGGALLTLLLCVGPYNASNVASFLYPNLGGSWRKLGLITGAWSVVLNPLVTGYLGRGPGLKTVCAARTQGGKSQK
# method.description: Assay II: IP1 accumulation (IPOne HTRF) in 1321N1 cells stably expressing human GPR40
# Type: cell-based
# recorded.conditions: 1321N1 cells expressing human GPR40, stimulation 1 h at 37° C., 5% CO2, LiCl 50 mM
For each record, write down the corresponding EC50.
Answers are plain numbers, in nM.

compound	EC50 [nM]
Cc1cn(C)c(-c2cc(C)c(-c3ccc(F)c4c3CC[C@H]4Oc3ccc4c(c3)OC[C@H]4CC(=O)O)c(C)c2)n1 [Example 142]	16
Cc1cc(-c2cnc(=O)n(C)c2)cc(C)c1-c1ccc(F)c2c1CC[C@H]2Oc1ccc2c(c1)OC[C@H]2CC(=O)O [Example 89]	9
Cc1cc(-c2cn(C)cn2)cc(C)c1-c1ccc(F)c2c1CC[C@H]2Oc1ccc2c(c1)OC[C@H]2CC(=O)O [Example 133]	2

Now turn to the next compound.
// Cc1cc(-c2nccn2C)cc(C)c1-c1ccc(F)c2c1CC[C@H]2Oc1ccc2c(c1)OC[C@H]2CC(=O)O [Example 144] : EC50 value = 17
